// data source = the Human Domainome abundance scans (Beltran et al. 2025)

B1: Pre-mRNA-processing factor 40 homolog B, residues 274 to 332; numbered along this chain, Q6NWY9 (parent)
chain: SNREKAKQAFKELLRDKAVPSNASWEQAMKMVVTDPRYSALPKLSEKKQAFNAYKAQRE

variants of: B1; experiment: abundance fitness (aPCA) (normalised: wild type 0, dead -1); higher = more abundant; growth selection in yeast, the domain comes from the species named; settings: Homo sapiens
Think of -0.09 as a floor: if abundance fitness stands on it or above, it is Satisfied; beneath it, Not satisfied.

Test whether the variant `P20S` records abundance fitness of -0.09 or higher. Not satisfied

For `A9D` then? Satisfied

For `K5H` then? Not satisfied

For `V19K` then? Not satisfied
